Tested on: Caco-2
assay summary: cell viability relative to DMSO; higher = less toxic
measurement context: 72 h; 10000 nM
value kind: cell viability

compound	value kind	value observed
CCCCCNC(=N)N/N=C/c1c[nH]c2ccc(OC)cc12	cell viability	96.9%
COc1ccc2c(O[C@@H]3C[C@H]4C(=O)N[C@]5(C(=O)NS(=O)(=O)C6CC6)C[C@H]5/C=C\CCCCN(C)C(=O)[C@@H]4C3)cc(-c3nc(C(C)C)cs3)nc2c1C	cell viability	70.8%
NC(=O)c1cn([C@@H]2O[C@H](CO)[C@@H](O)[C@H]2O)c2ncnc(N)c2c1=O	cell viability	36.4%
CC1(C)S[C@@H]2[C@H](NC(=O)C(C(=O)O)c3ccccc3)C(=O)N2[C@H]1C(=O)O (some centres undefined)	cell viability	94.9%
CS(=O)(=O)N(Cc1ccco1)C[C@@H](O)Cn1c2ccccc2c2ccccc21	cell viability	94.6%
C[C@]12CCC(=O)C(O)=C1CC[C@@H]1[C@@H]2CC[C@]2(C)C(=O)CC[C@@H]12	cell viability	117%
C#CCN(C)Cc1ccccc1	cell viability	103%
OB1OCc2cc(Cl)ccc21	cell viability	82.7%
CS(=O)(=O)c1ccc([C@@H](O)[C@@H](CF)NC(=O)C(Cl)Cl)cc1	cell viability	96%
O=C(NCNC(=O)NC1C(=O)NC(=O)N1CO)NC1C(=O)NC(=O)N1CO (centres undefined)	cell viability	103%
Nc1ncnc(Nc2ccc(Cl)cc2)n1	cell viability	103%
O=C(CCBr)N1CCN(C(=O)CCBr)CC1	cell viability	99%
O=[N+]([O-])c1cn2c(n1)OC[C@@H](OCc1ccc(-c3ccc(OC(F)(F)F)cc3)nc1)C2	cell viability	92.9%
CC(=O)Oc1c(C)cc(OCC(O)CNC(C)C)c(C)c1C (centres undefined)	cell viability	70.3%
